Record form. Attribute: Mean % WT Binding. Fill in for each entry.
# Target entity: human CD33 W22E (human, UniProt P20138 18-364)
# Sequence (P20138 18-364 W22E limits assumed): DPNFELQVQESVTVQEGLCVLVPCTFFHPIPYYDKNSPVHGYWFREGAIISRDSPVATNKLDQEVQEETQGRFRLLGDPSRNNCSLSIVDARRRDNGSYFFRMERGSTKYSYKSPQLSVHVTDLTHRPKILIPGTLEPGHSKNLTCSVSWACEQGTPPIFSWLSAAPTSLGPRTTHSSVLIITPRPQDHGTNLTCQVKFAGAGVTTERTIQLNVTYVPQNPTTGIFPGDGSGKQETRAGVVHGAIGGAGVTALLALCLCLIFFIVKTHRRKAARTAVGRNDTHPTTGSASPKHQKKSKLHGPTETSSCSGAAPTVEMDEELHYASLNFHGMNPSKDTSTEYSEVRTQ
# Assay text: flow cytometry, mutant on cells, IgG
Give bare numbers, in % WT binding.

Solved cases below.
[
  {
    "Binder": "Refmab #4 (antibody, human IgG1, V domains shown, Tested in IgG format; human IgG1 Fc silent (PG-LALA)) VH: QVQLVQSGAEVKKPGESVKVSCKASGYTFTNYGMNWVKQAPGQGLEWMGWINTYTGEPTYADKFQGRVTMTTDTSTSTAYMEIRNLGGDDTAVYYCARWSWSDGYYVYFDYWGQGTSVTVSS VL: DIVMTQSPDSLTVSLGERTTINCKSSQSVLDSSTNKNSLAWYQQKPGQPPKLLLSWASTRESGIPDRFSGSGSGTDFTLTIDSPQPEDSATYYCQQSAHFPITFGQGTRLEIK",
    "Mean % WT Binding [% WT binding]": 99.4
  },
  {
    "Binder": "Refmab #1 (antibody, human IgG1, V domains shown, Tested in IgG format; human IgG1 (Absolute Antibody hP67.6, Cat. No. Ab00283-10.0); also called hP67.6) VH: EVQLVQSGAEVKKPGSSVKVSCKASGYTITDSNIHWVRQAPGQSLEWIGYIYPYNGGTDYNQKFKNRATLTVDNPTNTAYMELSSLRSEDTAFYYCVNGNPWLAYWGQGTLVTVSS VL: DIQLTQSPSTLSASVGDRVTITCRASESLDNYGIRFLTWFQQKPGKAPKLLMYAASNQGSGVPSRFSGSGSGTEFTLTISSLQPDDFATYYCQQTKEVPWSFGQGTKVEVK",
    "Mean % WT Binding [% WT binding]": 5
  },
  {
    "Binder": "Refmab #2 (antibody, human IgG1, V domains shown, Tested in IgG format; human IgG1 Fc silent (PG-LALA)) VH: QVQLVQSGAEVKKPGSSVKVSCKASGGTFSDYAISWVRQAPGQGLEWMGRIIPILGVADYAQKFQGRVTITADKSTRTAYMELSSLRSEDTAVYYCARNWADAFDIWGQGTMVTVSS VL: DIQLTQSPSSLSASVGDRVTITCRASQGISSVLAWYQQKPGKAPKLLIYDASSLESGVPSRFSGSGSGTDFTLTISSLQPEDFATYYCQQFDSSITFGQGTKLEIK",
    "Mean % WT Binding [% WT binding]": 107
  }
]

Proceeding to the next binder to report its Mean % WT Binding.
Reported Mean % WT Binding ( Refmab #3 (antibody, human IgG1, V domains shown, Tested in IgG format; human IgG1 Fc silent (PG-LALA)) VH: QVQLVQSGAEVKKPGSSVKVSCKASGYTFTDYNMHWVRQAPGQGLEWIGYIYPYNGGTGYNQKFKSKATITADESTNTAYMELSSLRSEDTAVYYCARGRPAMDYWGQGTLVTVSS VL: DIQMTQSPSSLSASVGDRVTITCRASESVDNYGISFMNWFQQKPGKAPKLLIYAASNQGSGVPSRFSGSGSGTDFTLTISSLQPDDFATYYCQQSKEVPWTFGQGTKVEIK ) = 1.4
